Tested on: Escherichia coli TOP10
procedure.summary: shrunken log2 fold change of peptide-encoding DNA abundance (4.5 h post-induction vs induction); higher = less antimicrobial activity (less host growth inhibition)
cond: time post-induction: 4.5 h; library: site-saturation at positions 5, 18, 19, 20
shrunken log2 fold change overview
# print the numeric value only

Consider the reported shrunken log2 fold change for these sequences:
{"ordered.residues": "RRIRWRPPRLPRPRPRPCIVPRP", "assay.value": 0.0112}
{"ordered.residues": "RRIRERPPRLPRPRPRPNFHPRP", "assay.value": -0.382}
{"ordered.residues": "RRIRHRPPRLPRPRPRPALCPRP", "assay.value": 0.174}
{"ordered.residues": "RRIRIRPPRLPRPRPRPMEPPRP", "assay.value": -0.101}
{"ordered.residues": "RRIRTRPPRLPRPRPRPEDYPRP", "assay.value": -0.00822}
{"ordered.residues": "RRIRHRPPRLPRPRPRPAWRPRP", "assay.value": 0.654}
{"ordered.residues": "RRIRGRPPRLPRPRPRPGISPRP", "assay.value": 0.0483}
{"ordered.residues": "RRIRLRPPRLPRPRPRPWEQPRP", "assay.value": -0.206}

Next sequence, please.
Q: Return reported shrunken log2 fold change; argument: RRIRMRPPRLPRPRPRPAAQPRP
A: 1.12

----------
Test system: Escherichia coli TOP10
procedure.summary: shrunken log2 fold change of peptide-encoding DNA abundance (4.5 h post-induction vs induction); higher = less antimicrobial activity (less host growth inhibition)
cond: time post-induction: 4.5 h; library: site-saturation at positions 5, 18, 19, 20
endpoint: shrunken log2 fold change

{"ordered.residues": "RRIRSRPPRLPRPRPRPWIIPRP", "shrunken log2 fold change": -0.159}
{"ordered.residues": "RRIRARPPRLPRPRPRPQQLPRP", "shrunken log2 fold change": 0.176}

Q: I am curious: what shrunken log2 fold change value has been reported for RRIRQRPPRLPRPRPRPDMGPRP ?
A: 0.0191

Q: Entry RRIRKRPPRLPRPRPRPVETPRP please
A: 0.416

Q: Again, but for RRIRCRPPRLPRPRPRPKCMPRP
A: -0.483

Q: Could you do the same for RRIRVRPPRLPRPRPRPNLMPRP , please?
A: -0.153

Q: Further, for RRIRQRPPRLPRPRPRPHAMPRP ?
A: -0.0121

----------
Tested on: Escherichia coli TOP10
procedure.summary: shrunken log2 fold change of peptide-encoding DNA abundance (4.5 h post-induction vs induction); higher = less antimicrobial activity (less host growth inhibition)
cond: time post-induction: 4.5 h; library: site-saturation at positions 5, 18, 19, 20
The entries below come with measured shrunken log2 fold change values attached.
Note: the reply should be a number with no unit written.

Below, each entry is followed by its recorded shrunken log2 fold change result.
{"ordered.residues": "RRIRDRPPRLPRPRPRPQHMPRP", "shrunken log2 fold change": -0.11}
{"ordered.residues": "RRIRPRPPRLPRPRPRPVVNPRP", "shrunken log2 fold change": -0.229}

Q: Query the reported shrunken log2 fold change for Escherichia coli TOP10; item: RRIRNRPPRLPRPRPRPAMNPRP
A: -0.000576

Q: How about RRIRIRPPRLPRPRPRPCTDPRP ?
A: -0.143

Q: Please answer likewise for RRIRDRPPRLPRPRPRPFEYPRP
A: -0.00586

Q: Would you kindly repeat that for RRIRSRPPRLPRPRPRPNAHPRP ?
A: -0.184

Q: Another sequence: RRIRERPPRLPRPRPRPTRQPRP
A: 0.588

Q: And the next one, RRIRSRPPRLPRPRPRPFCWPRP ?
A: 0.651

----------
Test system: Escherichia coli TOP10
procedure.summary: shrunken log2 fold change of peptide-encoding DNA abundance (4.5 h post-induction vs induction); higher = less antimicrobial activity (less host growth inhibition)
cond: time post-induction: 4.5 h; library: site-saturation at positions 5, 18, 19, 20
Hi, to clarify the labels: true (1) covers shrunken log2 fold change from -0.09 upward, false (0) covers anything below -0.09.

Solved cases below.
{"ordered.residues": "RRIRQRPPRLPRPRPRPWAVPRP", "category": "true (1)"}
{"ordered.residues": "RRIRCRPPRLPRPRPRPTKQPRP", "category": "true (1)"}
{"ordered.residues": "RRIRRRPPRLPRPRPRPCEGPRP", "category": "true (1)"}
{"ordered.residues": "RRIRIRPPRLPRPRPRPYHCPRP", "category": "true (1)"}
{"ordered.residues": "RRIRCRPPRLPRPRPRPPGEPRP", "category": "true (1)"}

Now examine the next entry.
Q: Test whether the sequence RRIRGRPPRLPRPRPRPDAVPRP records shrunken log2 fold change of -0.09 or higher.
A: true (1)

----------
Test system: Escherichia coli TOP10
procedure.summary: shrunken log2 fold change of peptide-encoding DNA abundance (4.5 h post-induction vs induction); higher = less antimicrobial activity (less host growth inhibition)
cond: time post-induction: 4.5 h; library: site-saturation at positions 5, 18, 19, 20
Here, each record is paired with measured shrunken log2 fold change data.
Please give the numeric answer without any surrounding text.

{"ordered.residues": "RRIRMRPPRLPRPRPRPWPKPRP", "shrunken log2 fold change": 0.543}
{"ordered.residues": "RRIRERPPRLPRPRPRPQFPPRP", "shrunken log2 fold change": -0.253}
{"ordered.residues": "RRIRCRPPRLPRPRPRPHTKPRP", "shrunken log2 fold change": -0.309}
{"ordered.residues": "RRIRGRPPRLPRPRPRPEYVPRP", "shrunken log2 fold change": 0.244}
{"ordered.residues": "RRIRRRPPRLPRPRPRPTASPRP", "shrunken log2 fold change": 0.146}
{"ordered.residues": "RRIRIRPPRLPRPRPRPDAMPRP", "shrunken log2 fold change": -0.112}

Q: So what does the record say about shrunken log2 fold change for RRIRSRPPRLPRPRPRPVFFPRP ?
A: 0.142

Q: Would you kindly repeat that for RRIRYRPPRLPRPRPRPDWPPRP ?
A: -0.0212

Q: Cool, now RRIRHRPPRLPRPRPRPFLVPRP
A: -0.106

Q: Same thing, different sequence: RRIRTRPPRLPRPRPRPINMPRP
A: -0.0135

Q: Input RRIRIRPPRLPRPRPRPFICPRP
A: -0.304

Q: Okay, and RRIRLRPPRLPRPRPRPICCPRP ?
A: -0.205

Q: Would you mind doing RRIRTRPPRLPRPRPRPAVDPRP as well?
A: -0.209

Q: Then RRIRGRPPRLPRPRPRPSWNPRP ?
A: 0.285

Q: Also check RRIRCRPPRLPRPRPRPRRDPRP
A: 0.0823

----------
Test system: Escherichia coli TOP10
procedure.summary: shrunken log2 fold change of peptide-encoding DNA abundance (4.5 h post-induction vs induction); higher = less antimicrobial activity (less host growth inhibition)
cond: time post-induction: 4.5 h; library: site-saturation at positions 5, 18, 19, 20
endpoint: shrunken log2 fold change
Enter a number only.

{"ordered.residues": "RRIRVRPPRLPRPRPRPAQMPRP", "target.desc": "Escherichia coli TOP10", "shrunken log2 fold change": 0.126}

Q: Quick check: shrunken log2 fold change of RRIRKRPPRLPRPRPRPSAWPRP ?
A: 0.534

Q: Follow-up entry: RRIRMRPPRLPRPRPRPHEHPRP
A: 0.301

Q: Field entry: RRIRIRPPRLPRPRPRPAESPRP
A: 0.0486

Q: Same question for RRIRERPPRLPRPRPRPMCFPRP please.
A: -0.176

----------
Tested on: Escherichia coli TOP10;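 note: peptides expressed intracellularly from a pBAD plasmid library in pooled LB shake-flask culture, induced with 0.3% L-arabinose, DNA abundance read by NGS, three biological replicates, DESeq2 with apeglm shrinkage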
procedure.summary: shrunken log2 fold change of peptide-encoding DNA abundance (4.5 h post-induction vs induction); higher = less antimicrobial activity (less host growth inhibition)
cond: time post-induction: 4.5 h; library: site-saturation at positions 5, 18, 19, 20
endpoint: shrunken log2 fold change

{"ordered.residues": "RRIRTRPPRLPRPRPRPYEPPRP", "endpoint": "shrunken log2 fold change", "assay.value": -0.18}
{"ordered.residues": "RRIRKRPPRLPRPRPRPIIEPRP", "endpoint": "shrunken log2 fold change", "assay.value": -0.0922}
{"ordered.residues": "RRIRGRPPRLPRPRPRPLAVPRP", "endpoint": "shrunken log2 fold change", "assay.value": 0.809}
{"ordered.residues": "RRIRPRPPRLPRPRPRPHTVPRP", "endpoint": "shrunken log2 fold change", "assay.value": -0.214}
{"ordered.residues": "RRIRIRPPRLPRPRPRPGRLPRP", "endpoint": "shrunken log2 fold change", "assay.value": 0.12}

Q: I would be grateful if you could share the reported shrunken log2 fold change for RRIRMRPPRLPRPRPRPHLGPRP .
A: 0.086

Q: For RRIRPRPPRLPRPRPRPLLCPRP then?
A: 0.127

Q: Further, for RRIRNRPPRLPRPRPRPSFGPRP ?
A: 0.00557
